src = patent US20240245677A1

Experiment: Pharmacokinetic study in male CD1 mice
Assay type: in vivo, mouse
Details: male, CD1, mouse, plasma, intravenous, 2 mg/kg, 2 mg/kg IV, 4 h; read-out: Plasma Concentration, individual mice
Description: The pharmacokinetic (PK) profile in plasma of Compound 1 was determined in male CD1 mice following single dose intravenous (IV) (2 mg/kg) and per os (PO) (10 mg/kg) administration. […] All animals were housed in cages with clean bedding and maintained and monitored for good health and at the discretion of the laboratory animal veterinarian. […] After blood collection from each animal, the sample from that animal was recorded in the sample collection sheet. […]
measured.property: concentration at 4 h

In: What measured concentration at 4 h goes with COc1cc(-c2cn(C)c(=O)c(C)c2C)cc(OC)c1CN1CC[C@H](N2CCN(c3ccc(N[C@H]4CCC(=O)NC4=O)cc3F)CC2)C(F)(F)C1 [Compound 1] ?
Out: 567 ng/mL
